Tested on: RIOK2;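 also: kd values determined as follow-up on hits from a single-replicate KINOMEscan panel screen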
endpoint: Kd

| structure_as_smiles | endpoint_value |
| --- | --- |
| CNCc1ccc2nc(NC(=O)c3ccc(C(C)(C)C)cc3)cn2c1 | > 10 µM |

###

Listed here: items and their measured %Inh.
Test system: SNRK
Settings: concentration: 1 μM, replicates: in singlicate; n = 1
endpoint: %Inh (%)

| molecule | assayed_system | endpoint_unit | endpoint_value |
| --- | --- | --- | --- |
| Cn1cncc1C(=O)NC1CCN(c2ccnc(Nc3ccc(F)cc3)n2)C1 (stereo not drawn) | SNRK | % | 0 |
| CC[C@@H]1CO[C@H](C(=O)Nc2ccccc2)CN1c1cc(-c2ccc3c(N)n[nH]c3c2)nc(NC)n1 | SNRK | % | 5 |
| O=C(Nc1n[nH]c2nc(-c3cccs3)c(Br)cc12)C1CC1 | SNRK | % | 0 |
| COc1ccc(Nc2nccc(N3CCC(NC(=O)C(C)c4ccc(Cl)cc4)C3)n2)cc1 (stereo not drawn) | SNRK | % | 48 |
| Fc1ccc(-c2nc3n(c2-c2ccncc2)CCS3)cc1 | SNRK | % | 0 |
| Cc1ccccc1Cn1ccn2c(=O)cc(N3CCOCC3)nc12 | SNRK | % | 0 |
| COc1ccc(-c2coc3ccc(-c4nnc(C)o4)cc23)cc1 | SNRK | % | 0 |
| O=c1cc(N2CCOCC2)nc2n(Cc3cccc(Cl)c3Cl)c3ccccc3n12 | SNRK | % | 0 |
| CS(=O)(=O)CCNCc1nc(-c2ccc3ncnc(Nc4ccc5c(cnn5Cc5ccccc5)c4)c3c2)cs1.Cl.Cl | SNRK | % | 0 |
| CCc1ccc(-c2ccc3c(c2)-c2n[nH]cc2S(=O)(=O)N3C)cc1 | SNRK | % | 1 |
| Cn1cnc2c(N)ncnc21 | SNRK | % | 0 |
| NS(=O)(=O)c1cccc(N/C=C2\C(=O)Nc3ccc(S(=O)(=O)Cc4c(Cl)cccc4Cl)cc32)c1 | SNRK | % | 0 |
| COC(=O)C(Cc1ccccc1)NC(=O)NC1CCN(c2ccnc(Nc3ccc(F)cc3)n2)C1 (stereo not drawn) | SNRK | % | 0 |
| COc1cccc(C2=C(Nc3cc(Cl)c(O)c(Cl)c3)C(=O)NC2=O)c1 | SNRK | % | 0 |
| COc1nccc(-c2c(-c3ccc(F)cc3)ncn2CCCN2CCOCC2)n1 | SNRK | % | 0 |
| CC(C)c1cc(-c2ccc3c(N)n[nH]c3c2)nc(N)n1 | SNRK | % | 0 |
| Fc1ccc(-c2nn3cccc(F)c3c2-c2ccncc2)cc1 | SNRK | % | 0 |
| CSc1ccc(-c2nc3n(c2-c2ccncc2)CCC3)cc1 | SNRK | % | 18 |

###

Test system: TYK2(JH2domain-pseudokinase)
Conditions: concentration: 1 μM, replicates: in singlicate; n = 1
Mark met only when %Inh stays strictly below 4%. Values equal to the cut-off are not met.

| structure_as_smiles | assayed_system | classification |
| --- | --- | --- |
| Cc1c(Cn2c3ccccc3n3c(=O)cc(N4CCOCC4)nc23)cccc1C(F)(F)F | TYK2(JH2domain-pseudokinase) | met |
| c1ccc(-c2ccnc3[nH]ccc23)cc1 | TYK2(JH2domain-pseudokinase) | not met |
| O=C1NC(=O)C(c2ccc(Cl)cc2)=C1Nc1ccc(O)cc1 | TYK2(JH2domain-pseudokinase) | met |
| O=c1cc(N2CCOCC2)nc2n(Cc3cccc(Cl)c3Cl)c3ccccc3n12 | TYK2(JH2domain-pseudokinase) | met |
| Cc1ccccc1-c1cc(-c2c[nH]nc2-c2ccccn2)ccn1 | TYK2(JH2domain-pseudokinase) | not met |
| Nc1nccc(-c2c(-c3ccc(F)cc3)ncn2C2CCN(Cc3ccccc3)CC2)n1 | TYK2(JH2domain-pseudokinase) | not met |
| COc1nccc(-c2c(-c3ccc(F)cc3)ncn2CCCN2CCOCC2)n1 | TYK2(JH2domain-pseudokinase) | not met |
| O=c1cc(N2CCOCC2)nc2n(Cc3ccccc3F)ccn12 | TYK2(JH2domain-pseudokinase) | met |
| CS(=O)(=O)Cc1ccc(Nc2nccc(-c3c(-c4cccc(NC(=O)C5CCCCC5)c4)nn4ncccc34)n2)cc1 | TYK2(JH2domain-pseudokinase) | not met |
| Cc1cccc2c(-c3ccncn3)c(-c3ccc(F)cc3)nn12 | TYK2(JH2domain-pseudokinase) | not met |
| COc1cc2ncnc(Nc3cccc(Br)c3)c2cc1OC.Cl | TYK2(JH2domain-pseudokinase) | not met |
| Nc1cccc(-c2ccc3c(N)n[nH]c3c2)n1 | TYK2(JH2domain-pseudokinase) | not met |
| O=C(Nc1n[nH]c2nc(-c3cccs3)c(Br)cc12)C1CC1 | TYK2(JH2domain-pseudokinase) | met |
| COc1ccc(CSc2nnc(-c3ccc4nccn4c3)o2)cc1C(F)(F)F | TYK2(JH2domain-pseudokinase) | not met |
| CNc1cc(-c2ccc3c(N)n[nH]c3c2)nc(N)n1 | TYK2(JH2domain-pseudokinase) | not met |
| Fc1ccc(-c2nc[nH]c2-c2ccncc2)cc1 | TYK2(JH2domain-pseudokinase) | not met |
| CNC(=O)c1ccc(C)c(-n2c(C)cc(OCc3ccc(F)cc3F)c(Br)c2=O)c1 | TYK2(JH2domain-pseudokinase) | met |
| O=C(Nc1n[nH]c2nc(-c3cccs3)c(Br)cc12)C1CCCC1 | TYK2(JH2domain-pseudokinase) | not met |

Values from paper PMC5540273
